# target.desc: DNA polymerase beta (Homo sapiens)
# method: Inhibition of human recombinant DNA polymerase beta
measured.endpoint: IC50

Ask | Can you look up the measured IC50 of CCOC(=O)C(=O)CC(=O)/C=C/c1cc(C(=O)c2ccccc2F)c[nH]1 for me?
Reply | > 40 µM

Ask | Same lookup for C/C=C/Cn1cc(/C=C/C(=O)CC(=O)C(=O)OCC)c2ccccc21 , please.
Reply | > 40 µM

Ask | Same lookup for O=C(/C=C/c1cc(C(=O)c2ccccc2)cn1Cc1ccc(F)cc1)CC(=O)C(=O)O , please.
Reply | 40 µM

Ask | Same lookup for CCOC(=O)C(=O)CC(=O)/C=C/c1cn(C=C(C)C)c2ccccc12 , please.
Reply | > 40 µM

Ask | Same lookup for CCOC(=O)C(=O)CC(=O)/C=C/c1cc(C(=O)c2ccc(F)cc2)c[nH]1 , please.
Reply | > 40 µM

---

For each entry below, report its ID50 value.
# target.desc: DNA polymerase lambda (Homo sapiens) (UniProt Q9UGP5)
# Sequence (Q9UGP5 whole entry): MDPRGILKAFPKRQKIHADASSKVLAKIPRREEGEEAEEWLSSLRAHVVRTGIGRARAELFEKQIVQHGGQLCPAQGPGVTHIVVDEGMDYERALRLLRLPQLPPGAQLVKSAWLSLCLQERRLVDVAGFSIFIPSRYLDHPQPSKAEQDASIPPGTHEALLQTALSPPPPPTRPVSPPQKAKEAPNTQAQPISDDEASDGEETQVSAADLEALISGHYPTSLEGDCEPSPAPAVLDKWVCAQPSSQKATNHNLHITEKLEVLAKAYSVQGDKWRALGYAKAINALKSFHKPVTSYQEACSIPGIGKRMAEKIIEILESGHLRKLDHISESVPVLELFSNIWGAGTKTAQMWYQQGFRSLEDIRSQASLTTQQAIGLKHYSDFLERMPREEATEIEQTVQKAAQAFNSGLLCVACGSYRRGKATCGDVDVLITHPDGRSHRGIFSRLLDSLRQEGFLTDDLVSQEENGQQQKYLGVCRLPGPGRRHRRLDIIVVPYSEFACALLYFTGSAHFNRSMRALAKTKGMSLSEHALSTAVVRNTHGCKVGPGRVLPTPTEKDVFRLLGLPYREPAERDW
# method: Inhibition of human recombinant full length DNA polymerase lambda TdT-like activity using [3H]dNTP as substrate after 10 mins by scintillation counting analysis

Ask | Give recorded ID50 with DNA polymerase lambda (Homo sapiens) (UniProt Q9UGP5) for the following molecule: CCOC(=O)C(=O)CC(=O)/C=C/c1cn(Cc2ccc(Cl)cc2)c2ccccc12
Reply | > 40 µM

Ask | Same lookup for CCOC(=O)C(=O)CC(=O)/C=C/c1cn(CC(=O)N2CCOCC2)c2ccccc12 , please.
Reply | > 40 µM

Ask | Same lookup for CCOC(=O)C(=O)CC(=O)/C=C/c1cn(Cc2ccc(O)cc2)c2ccccc12 , please.
Reply | > 40 µM

Ask | Same lookup for CCCCn1cc(/C=C/C(=O)CC(=O)C(=O)OCC)c2ccccc21 , please.
Reply | > 40 µM

Ask | Same lookup for O=C(/C=C/c1cn(-c2ccc(Cl)cc2)c2ccccc12)CC(=O)C(=O)O , please.
Reply | > 40 µM

Ask | Same lookup for O=C(/C=C/c1cc(C(=O)c2ccccc2F)c[nH]1)CC(=O)C(=O)O , please.
Reply | 27 µM

Ask | Same lookup for N#Cc1ccc(Cn2cc(C(=O)c3ccccc3)cc2/C=C/C(=O)CC(=O)C(=O)O)cc1 , please.
Reply | > 40 µM

Ask | Same lookup for O=C(/C=C/c1cn(Cc2ccc(F)cc2)c2ccccc12)CC(=O)C(=O)O , please.
Reply | > 40 µM

Ask | Same lookup for CCOC(=O)C(=O)CC(=O)/C=C/c1cn(Cc2ccc(C#N)cc2)c2ccccc12 , please.
Reply | > 40 µM

Ask | Same lookup for O=C(/C=C/c1cn(Cc2ccc(Cl)cc2)c2ccccc12)CC(=O)C(=O)O , please.
Reply | > 40 µM

Ask | Same lookup for CC(C)=Cn1cc(/C=C/C(=O)CC(=O)C(=O)O)c2ccccc21 , please.
Reply | 9 µM

Ask | Same lookup for O=C(/C=C/c1cc(C(=O)c2ccc(F)cc2)c[nH]1)CC(=O)C(=O)O , please.
Reply | 40 µM

Ask | Same lookup for C=C(C)Cn1cc(/C=C/C(=O)CC(=O)C(=O)O)c2ccccc21 , please.
Reply | 40 µM

Ask | Same lookup for O=C(/C=C/c1cc(C(=O)c2cccc(F)c2)c[nH]1)CC(=O)C(=O)O , please.
Reply | 35 µM

Ask | Same lookup for CN(C)C(=O)Cn1cc(/C=C/C(=O)CC(=O)C(=O)O)c2ccccc21 , please.
Reply | 40 µM

Ask | Same lookup for COc1ccc(Cn2cc(/C=C/C(=O)CC(=O)C(=O)O)c3ccccc32)cc1 , please.
Reply | > 40 µM

Ask | Same lookup for CCOC(=O)C(=O)CC(=O)/C=C/c1cc(C(=O)c2ccc(C#N)cc2)c[nH]1 , please.
Reply | > 40 µM

Ask | Same lookup for O=C(/C=C/c1cc(C(=O)c2ccccc2)cn1Cc1ccc(F)cc1)CC(=O)C(=O)O , please.
Reply | > 40 µM

Ask | Same lookup for CCCn1cc(/C=C/C(=O)CC(=O)C(=O)O)c2ccccc21 , please.
Reply | > 40 µM

Ask | Same lookup for CCCn1cc(/C=C/C(=O)CC(=O)C(=O)OCC)c2ccccc21 , please.
Reply | > 40 µM

Ask | Same lookup for CCOC(=O)C(=O)CC(=O)/C=C/c1cn(-c2ccc(Cl)cc2)c2ccccc12 , please.
Reply | > 40 µM

Reference source: ChEMBL document CHEMBL2440062
